Cited source for all entries: ChEMBL document CHEMBL1201862

Test system: SF-268
Assay: NCI tumour cell line growth inhibition, 48 h
Active and inactive are the calls of the source. Rule as the data show it: active = GI50 up to about 1.1 µM and inactive = higher.
In this exercise, the only acceptable responses are active, inactive

In: # outcome recorded in this test, key = CO[C@H]1Nc2c(ccc(C)c2O)C(=O)N2C=C(/C=C/C(N)=O)C[C@@H]12 [ANTHRAMYCIN METHYL ETHER]
Out: active

In: # outcome recorded in this test, key = CC(C)c1[nH]nc(C(N)=O)c1/N=N/N(C)C
Out: inactive

In: # outcome recorded in this test, key = CCOC(=O)c1cn2c(n1)sc1cc(F)ccc12
Out: inactive

In: # outcome recorded in this test, key = O=C(c1ccccc1)[C@H]1Nc2ccc(Cl)cc2[C@H]2CCC[C@@H]12
Out: inactive

In: # outcome recorded in this test, key = COc1ccc(C[C@H](N)C(=O)N2C[C@H](CO)C[C@H](n3ccc(=O)[nH]c3=O)C2)cc1
Out: inactive

In: # outcome recorded in this test, key = O=C(N/N=C\c1ccc([N+](=O)[O-])cc1)Nc1ccc2ccccc2c1
Out: inactive

In: # outcome recorded in this test, key = C/C=C\C(CC(=O)O)CN1CCC2=C(C1)C(S(=O)(=O)C(F)(F)F)c1ccccc12 (centres undefined)
Out: inactive

In: # outcome recorded in this test, key = C=C1C(C)C2C(Cc3ccccc3)NC(=O)C23OC(=O)/C=C\CC(=O)CCC(C)C/C=C/C3C1O (centres undefined)
Out: inactive

In: # outcome recorded in this test, key = O=C1c2nn(-c3ccccc3)nc2C(c2ccccc2)N1c1ccccc1 (centres undefined)
Out: inactive

In: # outcome recorded in this test, key = CNC(=O)OCc1c2ccncc2c(C)c2c1[nH]c1ccc(OC)cc12
Out: active

In: # outcome recorded in this test, key = CC(=O)OC1CCC2(C)C(CCC3C2CCC2(C)C(c4ccc(=O)oc4)C(OC(C)=O)CC32O)C1 (centres undefined)
Out: active

In: # outcome recorded in this test, key = COc1cc2nc3n(c(=O)c2cc1OC)-c1ccc([N+](=O)[O-])cc1C3=O
Out: inactive

In: # outcome recorded in this test, key = CC1OC2OC3C(OCC(O)C3O)OC(=O)[C@]34CCC(C)(C)CC3C3=CCC5[C@@]6(C)C[C@H](O)[C@H](OC7OC(CO)C(O)C(O)C7OC7OC(COC(=O)CC(C)(O)CC(=O)OC1C(O)C2O)C(O)C(O)C7O)[C@@](C)(CO)C6CC[C@@]5(C)[C@]3(C)CC4 (some centres undefined)
Out: inactive

In: # outcome recorded in this test, key = O=C1CC[C@@]2(O)[C@H]3Cc4ccc(-c5ccccc5)c5c4[C@@]2(CCN3CC2CC2)[C@H]1O5
Out: inactive

In: # outcome recorded in this test, key = O=C1OC2C(O)C(=O)OC2C1O (centres undefined)
Out: inactive

In: # outcome recorded in this test, key = C=CCN(Cc1ccncc1)C(=O)C(O)(c1ccccc1)c1ccccc1
Out: inactive

In: # outcome recorded in this test, key = Cc1c(C#N)c(N)n(C2OCC(O)C(O)C2O)c(=S)c1C#N (centres undefined)
Out: inactive

In: # outcome recorded in this test, key = C/C(=C\c1ccccc1)C(O)S(=O)(=O)O (centres undefined)
Out: inactive

In: # outcome recorded in this test, key = O=C(O)C1CCCCN1c1ccccc1[N+](=O)[O-] (centres undefined)
Out: inactive
